- Tested on: 786-0 renal
- TEST NAME: NCI tumour cell line growth inhibition, 48 h
The entries below are paired with their reported log10 TGI.
Response schema: value (number) is log10 of TGI in units of µM.

Use the examples below as a reference point.
COMPOUND	RECORDED RESULT
COCOc1c(C(O[Si](C)(C)C(C)(C)C)c2cnc(Sc3ccccc3)n2C)ccc(OC)c1OC (stereo unspecified)	0.64
CCCCCCCCCCCCCC[S+](C)C	0.42
COc1cc2c(cc1C)NC(=O)/C2=C\c1cccc(Oc2ccccc2)c1	1.41

Now for another entry.
Problem: I would be grateful if you could share the reported log10 TGI for COc1ccc(C(SCCO)(c2ccccc2)c2ccccc2)cc1 .
Result: 1.43
